EXPERIMENTAL TARGET: CB2 receptor (Homo sapiens, UniProt P34972)
Sequence (P34972 whole entry): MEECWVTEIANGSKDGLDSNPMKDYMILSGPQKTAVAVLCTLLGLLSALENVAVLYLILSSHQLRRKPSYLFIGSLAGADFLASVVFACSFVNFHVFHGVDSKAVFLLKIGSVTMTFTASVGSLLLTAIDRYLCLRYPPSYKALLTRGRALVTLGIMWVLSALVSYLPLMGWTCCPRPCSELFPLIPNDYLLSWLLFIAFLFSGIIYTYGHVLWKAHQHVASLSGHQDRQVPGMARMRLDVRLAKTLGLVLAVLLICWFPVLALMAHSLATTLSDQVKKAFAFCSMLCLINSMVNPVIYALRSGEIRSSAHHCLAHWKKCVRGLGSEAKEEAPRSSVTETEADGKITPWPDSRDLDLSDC
PROTOCOL: Human cannabinoid receptor bonding inhibition test ([3H]CP55940), CB2
Assay type: binding
Set-up: expressed in transfected cells; membrane fraction
RUN PARAMETERS: [3H]CP55940 0.5 nM, membrane preparation of CHO cells expressing CB2; Ki calculated from IC50; read-out: Binding activity (nM) CB2
MEASURED PARAMETER: Ki (nM)
Answers are plain numbers, in nM.

Before answering, review these 3 worked examples.
- MOLECULE: "CCc1c(C)cc(C(=O)NC2(C(=O)O)CCCCC2)c(=O)n1Cc1ccc(F)cc1 [Compound I-493]"
  UNIT INFO: "nM"
  REPORTED: 36
- MOLECULE: "O=C(O)CCc1csc(NC(=O)c2cc3c(n(CC4CCCCC4)c2=O)CCCCCC3)n1 [Compound X-64]"
  UNIT INFO: "nM"
  REPORTED: 18
- MOLECULE: "CC(C)(NC(=O)c1cc2c(n(CC3CCCCC3)c1=O)CCCCCC2)C(=O)NCC(N)=O [Compound I-054]"
  UNIT INFO: "nM"
  REPORTED: 6

Go through the items and report each one's Ki.
1. O=C(O)Cc1csc(NC(=O)c2cc3c(n(CC4CCCCC4)c2=O)CCCCCC3)n1 [IV-023]
2. O=C(NC1(C(=O)O)CCCCCCC1)c1cc2c(n(CC3CCCCC3)c1=O)CCCCCC2 [Compound X-240]

1: 22; 2: 6.2

Which Ki value belongs to CC(C)(NC(=O)c1cc2c(n(CC3CCCCC3)c1=O)CCCCCC2)C(=O)N1CCC(NS(C)(=O)=O)CC1 [Compound I-572] ? 4.4
